The values you see were collected from patent US10844017B2.

Assignment: determine reported pEC50 for the given compounds.
Target: RORγ receptor (B-RORγ LBD / Bioin-SRC1) (Homo sapiens, UniProt P51449)
Construct: 40 nM B-RORγ LBD solution
Sequence (P51449 269-508 limits assumed): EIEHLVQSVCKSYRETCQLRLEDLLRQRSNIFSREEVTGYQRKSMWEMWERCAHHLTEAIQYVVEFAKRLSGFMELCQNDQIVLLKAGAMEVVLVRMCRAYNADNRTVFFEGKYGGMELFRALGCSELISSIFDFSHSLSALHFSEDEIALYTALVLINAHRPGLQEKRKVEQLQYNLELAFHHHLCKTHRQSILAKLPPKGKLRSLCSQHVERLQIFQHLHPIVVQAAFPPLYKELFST
Sequence (Q15788 676-700 partner limits assumed): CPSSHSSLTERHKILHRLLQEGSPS
Assay: Determination of agonistic activities on RORγ receptors in vitro (dual FRET)
Conditions: average of at least two independent experiments
pEC50: −log10 of the molar value.

INPUT: Fill blank: measured pEC50 of the compound CC(C)Cc1ccc(-c2c(Cl)cc(NC(=O)Cc3ccc(S(C)(=O)=O)cc3)cc2Cl)cc1C#N [Example 17] is ____.
OUTPUT: 7.30 to 8.00

INPUT: Now try CC(C)Cc1ccc(-c2c(Cl)cc(NC(=O)Cc3ccc(=O)[nH]c3)cc2Cl)cc1C#N [Example 8] .
OUTPUT: 7.30 to 8.00

INPUT: // next record CC(C)Cc1ccc(-c2c(Cl)cc(NC(=O)Cc3cccc(C#N)c3)cc2Cl)cc1C#N [Example 12]
OUTPUT: 7.30 to 8.00

INPUT: And CCN(C)Cc1ccc(-c2c(Cl)cc(NC(=O)Cc3ccc(S(=O)(=O)CC)cc3)cc2Cl)cc1C#N [Example 36] ?
OUTPUT: 7.30 to 8.00

INPUT: Next entry: CC(C)Cc1ccc(-c2c(Cl)cc(C(=O)NCc3ccc(S(C)(=O)=O)cn3)cc2Cl)cc1C#N [Example 50]
OUTPUT: 7.00 to 7.30

INPUT: Likewise for CN(C)Cc1ccc(-c2c(Cl)cc(C(=O)NCc3ccc(S(C)(=O)=O)cc3)cc2Cl)cc1C#N [Example 52] ?
OUTPUT: 6.00 to 6.30

INPUT: Let us now turn to CC(C)Cc1ccc(-c2c(Cl)cc(NC(=O)Cc3ccc(S(N)(=O)=O)cc3)cc2Cl)cc1C#N [Example 21]
OUTPUT: > 8.00

INPUT: Same lookup for CC(C)Cc1ccc(-c2c(Cl)cc(NC(=O)CC3CCOCC3)cc2Cl)cc1C#N [Example 6] , please.
OUTPUT: 7.30 to 8.00

INPUT: // query: CC(C)Cc1ccc(-c2c(Cl)cc(NC(=O)Cc3ccccn3)cc2Cl)cc1C#N [Example 13]
OUTPUT: 7.30 to 8.00

INPUT: Try this compound next: CCS(=O)(=O)c1ccc(CC(=O)Nc2cc(Cl)c(-c3ccc(CC(C)C)cc3)c(Cl)c2)cc1 [Example 26]
OUTPUT: 7.30 to 8.00

INPUT: Entry to check: CN(C)Cc1ccc(-c2c(Cl)cc(NC(=O)Cc3ccc(S(C)(=O)=O)cc3)cc2Cl)cc1C#N [Example 34]
OUTPUT: 7.30 to 8.00

INPUT: What would you report for CCN(CC)Cc1ccc(-c2c(Cl)cc(NC(=O)Cc3ccc(S(C)(=O)=O)cc3)cc2Cl)cc1C#N [Example 33] ?
OUTPUT: 7.30 to 8.00

INPUT: Next entry: CC(C)Cc1ccc(-c2c(Cl)cc(NC(=O)c3ccccc3)cc2Cl)cc1C#N [Example 3]
OUTPUT: 7.00 to 7.30

INPUT: Also CCS(=O)(=O)c1ccc(CC(=O)Nc2cc(Cl)c(-c3ccc(C=C4CCC4)c(C#N)c3)c(Cl)c2)cc1 [Example 44] , if possible.
OUTPUT: 7.30 to 8.00

INPUT: Similarly, CC(C)Cc1ccc(-c2c(Cl)cc(NC(=O)NCc3ccc(CC(=O)O)cc3)cc2Cl)cc1C#N [Example 57] ?
OUTPUT: 7.30 to 8.00

INPUT: And CCS(=O)(=O)c1ccc(CCNc2cc(Cl)c(-c3ccc(CC(C)C)c(C#N)c3)c(Cl)c2)cc1 [Example 60] ?
OUTPUT: 7.30 to 8.00

INPUT: Thanks! And CN(C)Cc1ccc(-c2c(Cl)cc(NCCc3ccc(S(C)(=O)=O)cc3)cc2Cl)cc1C#N [Example 63] ?
OUTPUT: > 8.00

INPUT: // next record CCS(=O)(=O)c1ccc(CNC(=O)c2cc(Cl)c(-c3ccc(CN(C)C)c(C#N)c3)c(Cl)c2)cc1 [Example 51]
OUTPUT: 6.30 to 7.00

INPUT: How about CCS(=O)(=O)c1ccc(CNC(=O)Nc2cc(Cl)c(-c3ccc(CC(C)C)c(C#N)c3)c(Cl)c2)nc1 [Example 55] ?
OUTPUT: 7.30 to 8.00

INPUT: Input CCS(=O)(=O)c1ccc(CC(=O)Nc2cc(Cl)c(-c3ccc(CC(C)C)cc3C#N)c(Cl)c2)cc1 [Example 28]
OUTPUT: 7.30 to 8.00

INPUT: One more compound: CC(C)Cc1ccc(-c2c(Cl)cc(NC(=O)Cc3ccc(P(C)(C)=O)cc3)cc2Cl)cc1C#N [Example 23]
OUTPUT: 7.30 to 8.00

INPUT: # iterate: CCS(=O)(=O)c1ccc(CC(=O)Nc2ccc(-c3ccc(CC(C)C)cc3C(F)(F)F)c(Cl)c2)cc1 [Example 29]
OUTPUT: 7.30 to 8.00

INPUT: Can you check CCS(=O)(=O)c1ccc(CC(=O)Nc2cc(Cl)c(-c3ccc(CN4CCCC4)c(C#N)c3)c(Cl)c2)cc1 [Example 39] next?
OUTPUT: 7.30 to 8.00

* * *

molecular target: RORγ receptor (B-RORγ LBD / Bioin-SRC1) (Homo sapiens); construct: 40 nM B-RORγ LBD solution; test: Determination of agonistic activities on RORγ receptors in vitro (dual FRET); conditions: average of at least two independent experiments
pEC50: −log10 of the molar value.
outcome measure: pEC50

INPUT: What value of pEC50 has been reported for the following compound? "CC(C)Cc1ccc(-c2c(Cl)cc(NC(=O)Cc3ccc(C#N)cc3)cc2Cl)cc1C#N"
OUTPUT: 7.30 to 8.00

INPUT: Also "CCS(=O)(=O)c1ccc(CNC(=O)Nc2cc(Cl)c(-c3ccc(CN(C)C)c(C#N)c3)c(Cl)c2)cc1" , if possible.
OUTPUT: 7.30 to 8.00

INPUT: # repeat for "CC(C)Cc1ccc(-c2c(Cl)cc(NC(=O)Cc3ccc(CC(=O)O)cc3)cc2Cl)cc1C#N"
OUTPUT: > 8.00

INPUT: Another: "CN(C)Cc1ccc(-c2c(Cl)cc(NC(=O)NCc3ccc(S(C)(=O)=O)cc3)cc2Cl)cc1C#N"
OUTPUT: 7.30 to 8.00

INPUT: "CCS(=O)(=O)c1ccc(CNC(=O)c2cc(Cl)c(-c3ccc(CC(C)C)c(C#N)c3)c(Cl)c2)nc1" , same question.
OUTPUT: 7.00 to 7.30

INPUT: Same thing, different compound: "CCS(=O)(=O)c1ccc(CC(=O)Nc2cc(Cl)c(-c3ccc(CN4CCC4)c(C#N)c3)c(Cl)c2)cc1"
OUTPUT: < 6.00

INPUT: Also "CCS(=O)(=O)c1ccc(CCNc2cc(Cl)c(-c3ccc(CN(C)C)c(C#N)c3)c(Cl)c2)cc1" ?
OUTPUT: > 8.00

* * *

target: RORγ receptor (B-RORγ LBD / Bioin-SRC1) (Homo sapiens, UniProt P51449); construct: 40 nM B-RORγ LBD solution; experiment: Determination of agonistic activities on RORγ receptors in vitro (dual FRET); details: average of at least two independent experiments
outcome measure: EC50

INPUT: Could you share which EC50 value was measured for "CC(C)Cc1ccc(-c2c(Cl)cc(NC(=O)Cc3ccc(C(=O)O)cc3)cc2Cl)cc1C#N" ?
OUTPUT: < 10 nM

INPUT: Subsequent entry: "CC(C)Cc1ccc(-c2c(Cl)cc(C(=O)NCc3ccc(S(C)(=O)=O)cc3)cc2Cl)cc1C#N"
OUTPUT: 50 to 100 nM

INPUT: And then "CC(C)Cc1ccc(-c2c(Cl)cc(NCCc3ccc(S(C)(=O)=O)cc3)cc2Cl)cc1C#N" , what is it?
OUTPUT: 10 to 50 nM

INPUT: Item: "CC(C)Cc1ccc(-c2c(Cl)cc(NC(=O)NCc3ccc(S(C)(=O)=O)cn3)cc2Cl)cc1C#N"
OUTPUT: 10 to 50 nM

INPUT: For "CCS(=O)(=O)c1ccc(CC(=O)Nc2ccc(-c3ccc(CC(C)C)c(C#N)c3)c(Cl)c2)cc1" then?
OUTPUT: < 10 nM

INPUT: # repeat for "CCS(=O)(=O)c1ccc(CC(=O)Nc2cc(Cl)c(-c3ccc(CC4CCCC4)c(C#N)c3)c(Cl)c2)cc1"
OUTPUT: 10 to 50 nM

INPUT: Another molecule: "CCS(=O)(=O)c1ccc(CC(=O)Nc2cc(Cl)c(-c3ccc(CC(C)C)c(C#N)c3)c(Cl)c2)cc1"
OUTPUT: 10 to 50 nM

INPUT: Follow-up item: "CC(C)Cc1ccc(-c2c(Cl)cc(NC(=O)Cc3cccc(S(C)(=O)=O)c3)cc2Cl)cc1C#N"
OUTPUT: 10 to 50 nM

INPUT: // repeat for "CC(C)Cc1ccc(-c2c(Cl)cc(NC(=O)Cc3cccnc3)cc2Cl)cc1C#N" and report
OUTPUT: 10 to 50 nM

INPUT: Would you mind doing "CCS(=O)(=O)c1ccc(CC(=O)Nc2ccc(-c3ccc(CC(C)C)cc3OC(F)(F)F)c(Cl)c2)cc1" as well?
OUTPUT: 10 to 50 nM

INPUT: Also "CC(C)Cc1ccc(-c2c(Cl)cc(NC(=O)Cc3ccncc3)cc2Cl)cc1C#N" , if possible.
OUTPUT: 10 to 50 nM

INPUT: Now this one: "CCC(=O)Nc1cc(Cl)c(-c2ccc(CC(C)C)c(C#N)c2)c(Cl)c1"
OUTPUT: 10 to 50 nM

INPUT: Also, "CC(C)Cc1ccc(-c2c(Cl)cc(NC(=O)CC3CCCCC3)cc2Cl)cc1C#N" please.
OUTPUT: 10 to 50 nM

INPUT: Consider next the molecule "CC(C)CC(=O)Nc1cc(Cl)c(-c2ccc(CC(C)C)c(C#N)c2)c(Cl)c1" in the same way.
OUTPUT: 10 to 50 nM

INPUT: Same question for "CC(C)Cc1ccc(-c2c(Cl)cc(NC(=O)NCc3ccc(S(C)(=O)=O)cc3)cc2Cl)cc1C#N" please.
OUTPUT: 10 to 50 nM

INPUT: Here is the next molecule: "CC(C)Cc1ccc(-c2c(Cl)cc(NC(=O)Cc3ccn(C)n3)cc2Cl)cc1C#N"
OUTPUT: 10 to 50 nM
